tested-on: JAK2 (Homo sapiens)
Construct: made in house; host or cells: SF9 insect cells (baculovirus)
assay-method-text: JAK2 inhibition (Table 4)
Type: biochemical
test-settings: read-out: JAK2 Ki
property: Ki (nM)

Below: 5 compounds and their reported Ki.
[
  {
    "compound": "C[C@@H](O)c1nc2cnc3[nH]ccc3c2n1[C@H]1CC[C@H](OCC#N)CC1",
    "property": "Ki",
    "val": 14.4
  },
  {
    "compound": "COCCC(=O)NCCc1nc2cnc3[nH]ccc3c2n1C1CCN(CCC#N)CC1",
    "property": "Ki",
    "val": 35.5
  },
  {
    "compound": "FC(F)(F)c1nc2cnc3[nH]ccc3c2n1[C@@H]1CCCN(Cc2ccccc2)C1",
    "property": "Ki",
    "val": 145
  },
  {
    "compound": "CCN1CCCC[C@H]1C(=O)N1CCC(n2cnc3cnc4[nH]ccc4c32)CC1",
    "property": "Ki",
    "val": 515
  },
  {
    "compound": "CC(C(=O)N1CCC(n2cnc3cnc4[nH]ccc4c32)CC1)N(C)C (racemic)",
    "property": "Ki",
    "val": 184
  }
]

I. CC1CN(Cc2cncnc2)CCC1n1cnc2cnc3[nH]ccc3c21 (racemic) [Example 342]
II. N#CCCN1CCC(n2c(CNS(=O)(=O)C3CCCC3)nc3cnc4[nH]ccc4c32)CC1
# returns the entry with the larger Ki; inputs I and II Please identify the chosen entry by its label.
II
(II: 85.6 nM, I: 2.36 nM)

I. CN1CCC[C@H]1CN1CCC(n2cnc3cnc4[nH]ccc4c32)CC1
II. O=S(=O)(C1CC1)N1CCC(n2cnc3cnc4[nH]ccc4c32)CC1
Consider entries I and II . Which has the numerically lower Ki? Write down the label attached to your selection.
II
(II: 4.41 nM, I: 144 nM)

P. N#CCCN1CCC(n2c(CC(=O)N3CCC(F)(F)CC3)nc3cnc4[nH]ccc4c32)CC1
Q. N#CCCN1CCC(n2c(CC(N)=O)nc3cnc4[nH]ccc4c32)CC1
R. c1cc2c(ncc3ncn(CC4CCNCC4)c32)[nH]1
S. C[C@@H](O)c1nc2cnc3[nH]ccc3c2n1[C@@H]1CCCN(C(=O)CC2CC2)C1
T. OCc1nc2cnc3[nH]ccc3c2n1C1CCN(Cc2ccccc2)CC1
Rank descending by Ki. Note for the reader: the ranking is given by listing the labels in the order requested.
S, R, P, Q, T

A. CN(C)CC(=O)N1CCC[C@@H](n2cnc3cnc4[nH]ccc4c32)C1
B. N#CCCN1CCC(n2c(C#N)nc3cnc4[nH]ccc4c32)CC1
Lab note: record which item had the higher Ki, A or B . The response must carry the label of the picked entry.
A

1. CCN1CCC(n2c(CCNS(C)(=O)=O)nc3cnc4[nH]ccc4c32)C(F)(F)C1 (racemic) [Example 804]
2. CC(C)(C)OC(=O)N1CC(F)(F)C[C@H]1C(=O)N1CCC(n2cnc3cnc4[nH]ccc4c32)CC1
3. CS(=O)(=O)NCCc1nc2cnc3[nH]ccc3c2n1[C@H]1CCCOC1
4. O=S(=O)(N1CCC(n2cnc3cnc4[nH]ccc4c32)CC1)C(F)(F)F
5. CC(F)(F)CCc1nc2cnc3[nH]ccc3c2n1C1CCN(CCC#N)CC1
Output the entries ranked by Ki from maximum down to minimum. Response format: the labels, sorted as the prompt asks.
2, 3, 5, 1, 4
(2: 446 nM, 3: 77.1 nM, 5: 43 nM, 1: 25.2 nM, 4: 12.8 nM)

A. NC(=O)Cc1nc2cnc3[nH]ccc3c2n1C1CCN(S(=O)(=O)C2CC2)CC1
B. c1cncc(CN2CCC(n3nnc4cnc5[nH]ccc5c43)CC2)c1
C. O=S(=O)(CCC(F)(F)F)NCCc1nc2cnc3[nH]ccc3c2n1C1CCCCC1
List items by Ki in falling order. Kindly provide the labels arranged according to the requested ordering.
A, C, B

P. CCN1CC[C@@H](n2c(CNS(C)(=O)=O)nc3cnc4[nH]ccc4c32)[C@@H](F)C1
Q. c1cc(N2CCC(n3cnc4cnc5[nH]ccc5c43)CC2)ncn1
Kindly identify which of P and Q has the larger recorded Ki value. # reply format: chosen label
P
(P: 128 nM, Q: 34.6 nM)

1. NC1CCCC(n2cnc3cnc4[nH]ccc4c32)C1 (single isomer, unassigned) [Example 366]
2. COCC(=O)NC1CCCC(n2cnc3cnc4[nH]ccc4c32)C1 (single isomer, unassigned) [Example 483]
3. CN([C@H]1CC[C@H](n2cnc3cnc4[nH]ccc4c32)CC1)S(C)(=O)=O
4. O=C(Cc1nc2cnc3[nH]ccc3c2n1C1CCCOC1)NC1CCCC1 (racemic)
Rank by Ki (largest to smallest). The reply should contain the labels ordered as requested.
2, 4, 1, 3
(2: 832 nM, 4: 110 nM, 1: 69.8 nM, 3: 3.35 nM)

###

tested-on: JAK2 (Homo sapiens, UniProt O60674)
Construct: made in house; host or cells: SF9 insect cells (baculovirus)
Sequence (O60674 812-1132): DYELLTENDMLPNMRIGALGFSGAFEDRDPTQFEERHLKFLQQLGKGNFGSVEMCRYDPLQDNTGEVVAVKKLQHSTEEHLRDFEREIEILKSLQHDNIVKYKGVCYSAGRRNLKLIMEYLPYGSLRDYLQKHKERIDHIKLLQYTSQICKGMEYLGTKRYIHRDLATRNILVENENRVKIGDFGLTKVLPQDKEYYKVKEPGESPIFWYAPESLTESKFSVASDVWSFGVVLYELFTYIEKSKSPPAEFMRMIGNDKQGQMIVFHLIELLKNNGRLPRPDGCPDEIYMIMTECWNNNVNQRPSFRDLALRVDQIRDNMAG
assay-method-text: JAK2 inhibition (Table 4)
Type: biochemical
test-settings: read-out: JAK2 Ki
property: Ki (nM)

a. CC(C)(C)OC(=O)N[C@H]1CC[C@@H](n2cnc3cnc4[nH]ccc4c32)C1
b. O=C1CC(n2cnc3cnc4[nH]ccc4c32)CCN1 (racemic)
c. c1cncc(CN2CCC[C@@H](n3cnc4cnc5[nH]ccc5c43)C2)c1
d. O=C(CC(F)(F)F)NC1CCC(n2cnc3cnc4[nH]ccc4c32)C1 (racemic)
e. CC(C)(O)c1nc2cnc3[nH]ccc3c2n1C1CCNCC1
Using the list above, order everything by rising Ki. Give your ranking as a list of the labels in the requested order.
d, a, c, b, e
(d: 9.79 nM, a: 18.3 nM, c: 102 nM, b: 150 nM, e: 2240 nM)

I. CCN1CC[C@@H](n2cnc3cnc4[nH]ccc4c32)[C@@H](F)C1
II. C[C@@H](O)c1nc2cnc3[nH]ccc3c2n1[C@H]1CC[C@H](S(C)(=O)=O)CC1
III. CS(=O)(=O)NCc1nc2cnc3[nH]ccc3c2n1C1CCN(CCF)CC1
Please order the records by their reported Ki, lowest number first. Returns: the labels listed in the requested order.
I, III, II

###

tested-on: JAK3 (Homo sapiens)
Construct: made in house; host or cells: SF9 insect cells (baculovirus)
assay-method-text: JAK3 inhibition (Table 4)
Format: biochemical
test-settings: read-out: JAK3 Ki
pKi: −log10 of the molar value.
property: pKi

I. CCCc1nc2cnc3[nH]ccc3c2n1C1CCN(CCC#N)CC1
II. C[C@@H](O)c1nc2cnc3[nH]ccc3c2n1C1CC2CCC1C2 (stereo partly drawn)
III. N#CCCn1ncc2c1CC[C@@H](n1cnc3cnc4[nH]ccc4c31)C2
IV. O=C(Cc1nc2cnc3[nH]ccc3c2n1C1CCCOC1)N1CCSCC1 (racemic)
V. O=C1CCCN1Cc1nc2cnc3[nH]ccc3c2n1C1CCN(Cc2ccccc2)CC1
For the compounds shown above, give the order from largest pKi to smallest. Form entry: labels listed in requested order.
I, II, V, IV, III

###

tested-on: JAK3 (Homo sapiens, UniProt P52333)
Construct: made in house; host or cells: SF9 insect cells (baculovirus)
Sequence (P52333 783-1124): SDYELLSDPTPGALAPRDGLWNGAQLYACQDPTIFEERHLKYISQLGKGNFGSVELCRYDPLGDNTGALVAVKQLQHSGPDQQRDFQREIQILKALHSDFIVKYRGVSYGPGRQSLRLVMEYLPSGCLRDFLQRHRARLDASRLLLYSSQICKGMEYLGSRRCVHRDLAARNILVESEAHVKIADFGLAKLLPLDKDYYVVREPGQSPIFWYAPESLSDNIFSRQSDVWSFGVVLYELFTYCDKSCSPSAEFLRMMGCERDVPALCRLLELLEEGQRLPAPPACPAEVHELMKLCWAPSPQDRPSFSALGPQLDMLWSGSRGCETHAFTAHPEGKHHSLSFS
assay-method-text: JAK3 inhibition (Table 4)
Assay type: biochemical
test-settings: read-out: JAK3 Ki
pKi: −log10 of the molar value.
property: pKi

[
  {
    "compound": "c1cc2c(ncc3nc([C@H]4CCCN4)n([C@H]4CCCOC4)c32)[nH]1 [Example 667]",
    "val": 6.05
  }
]

a. N#CCCN1CCC(n2c(CC3CCCOC3)nc3cnc4[nH]ccc4c32)CC1 (racemic) [Example 409]
b. N#CCCN1CCC(n2c(C3CC3)nc3cnc4[nH]ccc4c32)CC1 [Example 337]
c. c1cc2c(ncc3ncn(C4CCN(C5CCOCC5)CC4)c32)[nH]1 [Example 85]
d. OC1CCN(Cc2nc3cnc4[nH]ccc4c3n2C2CCN(CC(F)F)CC2)CC1 [Example 705]
Rank by pKi (largest to smallest). Labels, requested order.
b, a, d, c
(b: 7.97, a: 6.90, d: 6.51, c: 6.15)

I. CCC(COC)n1c(C(C)O)nc2cnc3[nH]ccc3c21 (single isomer, unassigned) [Example 182]
II. CC(=O)N1CCC(n2c(C(F)(F)CN)nc3cnc4[nH]ccc4c32)CC1 [Example 139]
III. O=C(Cc1nc2cnc3[nH]ccc3c2n1C1CCN(Cc2ccccc2)CC1)N1CCCC1 [Example 100]
IV. FC(F)(F)c1cccc(CN2CCC(n3cnc4cnc5[nH]ccc5c43)CC2)n1 [Example 314]
Sequence the entries by pKi, beginning with the highest number. A complete answer lists every label in the requested sequence.
III, IV, I, II

###

tested-on: JAK3 (Homo sapiens, UniProt P52333)
Construct: made in house; host or cells: SF9 insect cells (baculovirus)
assay-method-text: JAK3 inhibition (Table 4)
Format: biochemical
test-settings: read-out: JAK3 Ki
property: Ki (nM)

Use these answered entries as a reference point.
[
  {
    "compound": "CC(C)(C)OC(=O)NC1CCC(n2cnc3cnc4[nH]ccc4c32)C1 (racemic) [Example 138]",
    "tested-on": "JAK3 (Homo sapiens, UniProt P52333)",
    "Ki / nM": 143
  },
  {
    "compound": "Cn1cc(CCc2nc3cnc4[nH]ccc4c3n2C2CCN(CCC#N)CC2)cn1 [Example 412]",
    "tested-on": "JAK3 (Homo sapiens, UniProt P52333)",
    "Ki / nM": 125
  },
  {
    "compound": "OC1CCCC(n2cnc3cnc4[nH]ccc4c32)C1 (single isomer, unassigned) [Example 561]",
    "tested-on": "JAK3 (Homo sapiens, UniProt P52333)",
    "Ki / nM": 14.5
  }
]

P. c1cc2c(ncc3nnn(C4CCCOC4)c32)[nH]1 (single isomer, unassigned) [Example 459]
Q. CS(=O)(=O)NCc1nc2cnc3[nH]ccc3c2n1C1CCN(CC(F)F)CC1 [Example 914]
Lower value of Ki belongs to which: P or Q ? Field: selected label. Fill in the label of the entry you choose.
Q

A. c1cc2c(ncc3ncn(C4CCCCNC4)c32)[nH]1 (single isomer, unassigned) [Example 110]
B. COCC(=O)NC1CCCC(n2cnc3cnc4[nH]ccc4c32)C1 (single isomer, unassigned) [Example 482]
Input pair: A , B . Output: entry with lower Ki. Record your answer as the label of the chosen record.
B
